method: Membrane permeability study (Caco-2)
Type: in vitro ADME
testConditions: human, pH 7.4; Caco-2, 10 μM, 90 min, A to B
measureName: Papp A→B at 90 min, 10 µM (×10⁻⁶ cm/s)
Write the answer as a number in ×10⁻⁶ cm/s, unit excluded.

Reference set (5 entries):
compound | Papp A→B at 90 min, 10 µM (×10⁻⁶ cm/s)
CCn1cnc2ccc(-n3ncc4cnc(Nc5ccc(N6CCN(C)CC6)cc5)nc43)cc21 [Compound 45] | 4.09
Cc1cc(Nc2ncc3cnn(-c4cccc(N=S(C)(C)=O)n4)c3n2)ccc1N1CCC(N(C)C)CC1 [Compound 14] | 5.86
Cc1cc(Nc2ncc3cnn(-c4cccc(N=S(C)(C)=O)n4)c3n2)ccc1N1CCN(C)CC1 [Compound 16] | 8.07
CN1CCN(c2ccc(Nc3ncc4cnn(-c5cccc(N=S(C)(C)=O)n5)c4n3)cc2)CC1 [Compound 1] | 8.93
C=CCn1c(=O)c2cnc(Nc3ccc(N4CCN(C)CC4)cc3)nc2n1-c1cccc(C(C)(C)O)n1 [AZD-1775, reference compound] | 14.5

# evaluate next
Note down Papp A→B at 90 min, 10 µM recorded for CN1CCN(c2ccc(Nc3ncc4cnn(-c5ccc6c(c5)C(C)(O)CO6)c4n3)cc2)CC1 (stereo not drawn) [Compound 40] 18.6

* * *

System: H1299 cells
method: Anti-proliferative effect by Cell Titer-Glo, H1299
Format: cell-based
testConditions: Homo sapiens, NCI-H1299, 72 h; H1299 cells, 3 days, Cell Titer-Glo; read-out: IC50 measured value H1299
Description: Compound solutions of different concentration gradients were prepared. […] The 384-well plates were removed from the cell incubator and allowed to equilibrate for 1 h to room temperature. 25 ul of Cell Titer-Glo assay was added to each well, lysed on a shaker for 2 min and then read out (Luminescence) using a BMG PHERAStar after 10 min incubation. […]
# IC50 values compiled below

Reference set (3 entries):
compound | observedValue
CCn1cnc2ccc(-n3ncc4cnc(Nc5ccc(N6CCN(C)CC6)cc5)nc43)cc21 | 0.1 to 1 µM
Cc1nc2cccc(-n3ncc4cnc(Nc5ccc(N6CCN(C)CC6)cc5)nc43)c2o1 | 0.1 to 1 µM
CN1CCN(c2ccc(Nc3ncc4cnn(-c5cccc6c5CCC6(C)O)c4n3)cc2)CC1 (centres unmarked) | 0.1 to 1 µM

Note down IC50 recorded for `CN1CCN(c2ccc(Nc3ncc4cnn(-c5ccc(F)c(C(C)(C)O)c5)c4n3)cc2)CC1` 0.1 to 1 µM

Note down IC50 recorded for CN1CCN(c2ccc(Nc3ncc4cnn(-c5cccc(C(C)(O)C(F)(F)F)n5)c4n3)cc2)CC1 (centres unmarked) 1 to 5 µM

Note down IC50 recorded for `CN1CCN(c2ccc(Nc3ncc4cnn(-c5cccc(-n6ccccc6=O)n5)c4n3)cc2)CC1` 5 to 20 µM

Note down IC50 recorded for `CN1CCN(c2ccc(Nc3ncc4cnn(-c5cccc(C(C)(C)O)c5)c4n3)cn2)CC1` 0.1 to 1 µM

Note down IC50 recorded for `CN1CCN(c2ccc(Nc3ncc4cnn(-c5ccc6scnc6c5)c4n3)cc2)CC1` 0.1 to 1 µM

* * *

method: Plasma protein binding (PPB), rat
Type: in vitro ADME
testConditions: 5 h dialysis, read-out: Plasma protein binding rate (%) Rat (converted)
# fraction unbound at 5 h, 1 µM values compiled below

Reference set (3 entries):
molecule | fraction unbound at 5 h, 1 µM
Cc1cc(Nc2ncc3cnn(-c4cccc(N=S(C)(C)=O)n4)c3n2)ccc1N1CCC(N(C)C)CC1 | 0.246
Cc1cc(Nc2ncc3cnn(-c4cccc(N=S(C)(C)=O)n4)c3n2)ccc1N1CCN(C)CC1 | 0.179
C=CCn1c(=O)c2cnc(Nc3ccc(N4CCN(C)CC4)cc3)nc2n1-c1cccc(C(C)(C)O)n1 [AZD-1775, reference compound] | 0.374

Note down fraction unbound at 5 h, 1 µM recorded for `CN1CCN(c2ccc(Nc3ncc4cnn(-c5cccc(N=S(C)(C)=O)n5)c4n3)cc2)CC1` 0.404
